# EXPERIMENTAL DETAILS: soluble fraction after stress (log2 fold change); higher = more stays soluble; pooled small domains, quantitative proteomics;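 also: 20 min heating vs room temperature control held 20 min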
# APPLIED CONDITIONS: stress: 75 degC
So basically: soluble fraction (log2) at -0.03 or higher? That is Fulfilled. Lower than -0.03? That is Not fulfilled.

Has HMQTTDTGAIETIVDELMAANPDKVEAYRGGKTGLQGFFMGQVMKQLGGQGNPKVISAIVTEKLE a recorded soluble fraction (log2) greater than or equal to -0.03?
Fulfilled

Does the sequence HMLKQLGRQEGRQEGAVDALRTVLALQIEQRFGPLDPTVQALIVAADIDALQRALSRVAVVSDLGAVFPP have recorded soluble fraction (log2) that is -0.03 or more?
Not fulfilled

Does the reported soluble fraction (log2) for HMADNILPAQTDAIKALATENGFSNESLEKYLIENYGTTIYGLSRNQGIQIINLFQSENPPKP fall at or above the -0.03 mark?
Fulfilled

Can HMGTPSAEELAFSAQKGNAVMRIMEIREKYIENGGQISDEERNEIERLIAIYYPKASIFDYLPMMG be said to have soluble fraction (log2) at or above -0.03?
Not fulfilled

soluble fraction (log2) >= -0.03 for HMDEIDYSKYSITTSNRIINIDGVQSKVELFDVSGRSIQSTMVTGKFSSRPLNAGFYIIHVDGYSVKVSV ?
Not fulfilled

Hi, just wondering whether HMYEDGGAFLKAEREKYGLTLTDIYEHTHIPVRKLKAYEMHEEEMPDRTRALLELYFDQVAYEYES shows soluble fraction (log2) of -0.03 or higher.
Not fulfilled

Is it the case that HMSNYPYLLRTYEGKLAVFTDDLVQPDLVFDVYVRTLPELDQQQLSRGIRVKTYDELTSMIEDYI has soluble fraction (log2) reaching or exceeding -0.03?
Not fulfilled

Exam item: decide whether the reported soluble fraction (log2) for HMPATPDATVQAVQQRLNELGYDVGSADGLMGRGTRSAIIAFQQDRGLAATGVADQALLLQLQP is at least -0.03.
Fulfilled

Tell me whether soluble fraction (log2) is at least -0.03 here: HMKIETVENPLLERTEISALFDSKSGSLTRKEAIDLISKKARIDSSTVYAIKLSNSSGSTRIIGLFY
Fulfilled

Is the recorded value of soluble fraction (log2) equal to or greater than -0.03 for this sequence? HMRPRGTRLPTGWTPSSDALDWTKAEKPGLDPLQTLEKFRDYWTAQPGQKGVKTDWDATWRNWVRREIP
Not fulfilled

Answer whether soluble fraction (log2) of HMTMQTAEQESRLEQKLIDLSVGIDRFEGYSRPHGQLIASIADRIGTRLGMAAHDRFYMQQAAL is greater than or equal to -0.03.
Fulfilled

Evaluate HMTRDAQLAALERLMDDPSPVVRKAVLKGVQAAGTEGLLWLQQLSKNQTLGPYALALLTELR : soluble fraction (log2) at minimum -0.03?
Not fulfilled

Could you please find out whether HMSPFYILDEVEAALDDTNLGRLLEIYEELRENSQLLVITHQKRTMEVGDALYGVTMRGDGVSAVISQRLR has soluble fraction (log2) that meets -0.03 or exceeds it?
Fulfilled

Dear colleague, could you confirm whether HMTLDEDYFYYTLKAKEGYYRLYKKLGVDRKIIDSLNPNLKEMGLQVGMVIRVPKSQTSDLSVKNSLLVE has soluble fraction (log2) at or above -0.03?
Not fulfilled

Check if soluble fraction (log2) >= -0.03 (inclusive). Item: HMKEEVSVPDIKGMTYEEAEAKLAKYDLEIEKGETVKASEQYEEGQISSQEPEAGSKVKEGSTIVVDVVE
Fulfilled

Hello, I need to know if HMKPSNRSYPTALRMEVIGIIRERYADFGPTLAGEKLAELHGIHLGRETIRQWMMAAGLWKDRR has measured soluble fraction (log2) not below -0.03. Thanks!
Not fulfilled

Does the reported soluble fraction (log2) for HMAKVSVNIILKDGVDQTTFVNDVTSNTEVDLKNQLISLPQMVVLSVEEDYINTLKSHSSISILELDE fall at or above the -0.03 mark?
Not fulfilled

In plain terms: is recorded soluble fraction (log2) at least -0.03 for HMTKGVKVEIGTEEASVDLYVVMEYGTPIQKAAYDAQESVRKAIETMTNLHVVRVDVHVQGVSF ?
Not fulfilled

Has HMSVFTDIYHQADHETKLMLIHEIKIVGDEKEFRLLKSIIDSTSNDLSKEANDALNAIKIRLALSK a recorded soluble fraction (log2) greater than or equal to -0.03?
Not fulfilled

// inclusive: soluble fraction (log2) at least -0.03? input: HMKQNVEAVIKERAIEKARAQVKAVSTHMALEAQSLSKEQLEFEIERIAAQIIDKMPSDFWND
Not fulfilled

Item HMENEIFVPKVFMDWYNKVDKSIKVFKAFNLIEKETDPRLKEWVEDNQDEFAKIWLGQLLPVV with soluble fraction (log2) of -0.03 or above?
Not fulfilled

Could you please find out whether HMISDQENDLNLKHLFDTADQNKDGLILESELKMLMTNLEINKETYDTVMKQITPAGMDYKTFSSL has soluble fraction (log2) that meets -0.03 or exceeds it?
Fulfilled

hey, is soluble fraction (log2) for this one >= -0.03? HMTTIAQNISNYRTRANMTQQQVADKLSVSHHTVSKWELGINTPSVEDMQKLAQVFGVTITELVVD
Not fulfilled

Hello, I need to know if HMTVLIDEQSSDGLLKITVTANTAVKSITIADELLEDKEQLEDYLILVLNKAIARANQVNQTELDAVAK has measured soluble fraction (log2) not below -0.03. Thanks!
Fulfilled

Please tell me: is the sequence HMQDLEIKINLGMTYYEVREAIGSPDIIDKINQYGRDFQMWTYYIDDKTKRYYFEDHLLTKI at or over -0.03 in terms of soluble fraction (log2)?
Not fulfilled
